Reference source for all entries: PubChem BioAssay AID1053180

Experiment: activators of Pax4 gene expression, primary screen, RT-PCR, mouse alpha TC1 cells, single point (AID 1053180);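 also: Pax4 Ct normalized to GAPDH with activation seen as lower delta delta Ct; plate controls were plate neutral control wells for no effect and Pax4 plasmid positive control for full effect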
Conditions: Pax4 mRNA qPCR, 6 days, at 10 µM, stronger effect = higher value, 100% = Pax4 plasmid added at qPCR
Out of some 9,600 compounds screened, about 20 (0.2%) were called active. For the sample, actives were picked, then their nearest neighbours and some compounds at random.
valueKind: activation (%)

- cpdSmiles: "COCC(=O)N1CC(=O)N2[C@H](CO)[C@H](c3ccc(-c4ccccc4F)cc3)[C@@H]2C1"
  unitOfMeasure: "%"
  quantitativeReadout: 0
- cpdSmiles: "CN(C)CC(=O)N1[C@H](CO)[C@@H](c2ccc(C#CC3CCCCC3)cc2)[C@@H]1C#N"
  unitOfMeasure: "%"
  quantitativeReadout: 0.005
- cpdSmiles: "O=C(c1ccccc1)N1CC(=O)N2[C@H](CO)[C@H](c3ccc(-c4ccccc4)cc3)[C@@H]2C1"
  unitOfMeasure: "%"
  quantitativeReadout: 0.0005
- cpdSmiles: "O=S(=O)(c1ccc(F)cc1)N1CCCCN2[C@H](CO)[C@H](c3ccc(-c4cncnc4)cc3)[C@H]2C1"
  unitOfMeasure: "%"
  quantitativeReadout: 0.001
